Hey, just so you know, these numbers are from the supplement of paper PMC10567573.

B1: ALDH8A1 (parent)
chain: WSSRSPQERSRVLNQVADLLEQSL

- Variants of: B1
- test-method-notes: protein stability index of a GFP-peptide fusion (GPS, HEK-293T) (PSI 1-6); higher = more stable;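 further: lentivirally expressed fusions sorted by FACS into six bins by GFP to DsRed ratio, PSI derived from sequencing read proportions per bin multiplied by bin number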
- measurement-parameters: c terminus: a fixed tail appended
Cut-off 2 on protein stability index, inclusive. At or above means met; below means not met.

{"columns": ["mutation-code", "label-class"],
 "data": [
  ["V12W", "not met"],
  ["S2P", "met"],
  ["R9H", "met"],
  ["P6V", "met"],
  ["P6R", "met"],
  ["R9D", "met"],
  ["A17H", "met"],
  ["A17L", "not met"],
  ["R9G", "met"],
  ["S3K", "met"],
  ["S10T", "not met"],
  ["L24Y", "not met"]
]}
